Target: EPHB2 (UniProt P29323)
Sequence (P29323 whole entry, looked up): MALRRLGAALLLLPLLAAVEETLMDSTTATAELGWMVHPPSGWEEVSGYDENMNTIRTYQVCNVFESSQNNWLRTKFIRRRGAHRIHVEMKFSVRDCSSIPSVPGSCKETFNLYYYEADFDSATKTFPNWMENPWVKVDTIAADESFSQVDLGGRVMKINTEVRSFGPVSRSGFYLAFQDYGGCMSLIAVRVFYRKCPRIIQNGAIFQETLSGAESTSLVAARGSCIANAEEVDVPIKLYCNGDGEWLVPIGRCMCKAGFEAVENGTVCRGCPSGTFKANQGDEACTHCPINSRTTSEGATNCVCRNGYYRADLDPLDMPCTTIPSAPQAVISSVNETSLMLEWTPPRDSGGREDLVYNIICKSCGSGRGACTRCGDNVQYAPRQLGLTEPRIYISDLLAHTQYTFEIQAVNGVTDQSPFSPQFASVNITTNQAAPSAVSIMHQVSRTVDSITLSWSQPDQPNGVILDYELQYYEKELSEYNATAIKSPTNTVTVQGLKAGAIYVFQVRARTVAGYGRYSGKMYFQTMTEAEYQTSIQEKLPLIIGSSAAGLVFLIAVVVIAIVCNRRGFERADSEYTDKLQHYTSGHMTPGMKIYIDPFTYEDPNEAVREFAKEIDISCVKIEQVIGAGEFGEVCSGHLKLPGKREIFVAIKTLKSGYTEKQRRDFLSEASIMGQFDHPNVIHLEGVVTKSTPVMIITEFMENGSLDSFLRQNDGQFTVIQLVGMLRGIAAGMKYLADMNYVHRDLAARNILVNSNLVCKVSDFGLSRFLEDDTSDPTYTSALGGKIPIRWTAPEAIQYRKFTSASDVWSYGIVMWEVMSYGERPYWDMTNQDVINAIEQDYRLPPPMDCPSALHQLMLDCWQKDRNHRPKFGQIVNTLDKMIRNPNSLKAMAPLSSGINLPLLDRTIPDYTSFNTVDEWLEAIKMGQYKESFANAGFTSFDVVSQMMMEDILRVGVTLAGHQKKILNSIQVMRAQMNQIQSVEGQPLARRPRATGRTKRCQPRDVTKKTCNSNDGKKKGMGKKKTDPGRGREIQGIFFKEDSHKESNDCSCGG
Assay: phosphorylation enrichment, bacterial display (enrichment ratio); higher = better substrate or ligand; peptides without Tyr show the background;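 also: 11-residue human phosphosite peptides and single-mutation variants displayed on the E. coli surface, counted by deep sequencing, each peptide's frequency after selection divided by its frequency in the unselected input library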;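 also: frequency after pTyr selection over input frequency; kinase dosed for 20-30% of maximal phosphorylation in three min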
Could you please report measured phosphorylation enrichment for the items listed next?
Numbers only.

Observe how each entry below is paired with its result.
Seq Text	Experimental Readout	Data Value
LVPPRYVRSEI [PKP2_Y194_A195V]	phosphorylation enrichment	0.645
HIILLYIFLKN [STXBP1_Y411_R406H]	phosphorylation enrichment	0.567
TRGLEYIVPLM [CLCN4_Y548_G544R]	phosphorylation enrichment	0.721
FLTQHYDAIPQ [ANG_Y38_K41I]	phosphorylation enrichment	0.51
DDKQPYEKKAE [HMGB1_Y144_A149E]	phosphorylation enrichment	0.645
RSDEDYLFREE [POR_Y573_YF]	phosphorylation enrichment	0.964
THPFPYLSLEI [MLH1_Y293_L292P]	phosphorylation enrichment	0.474
RLLRGYDQSAY [HLA-C_Y137]	phosphorylation enrichment	0.465
ATLDVYNPFET [SCAMP3_Y41]	phosphorylation enrichment	0.537
PTTKTYFPHFH [HBA1_Y43_D48H]	phosphorylation enrichment	0.399

Quick request: phosphorylation enrichment for each listed item, please.
1. DWWQEYVLNES [TGM1_Y267_R264W]
2. QRRYVYYYSYL [PTEN_Y176]
3. SQAPGYSFTAA [CYCS_Y47_G42S_YF]
4. LINLKYSVEEE [PCDH19_Y27]
5. TIQIMFGCDVG [HLA-A_Y123_Y123F]
6. FMGVEYSSCDT [EPHA3_Y937_T933M]
7. EERKTYVNTML [TEK_Y1102_T1106M]

0.817
1.83
0.465
0.755
0.801
0.756
0.442

---

Target: EPHB1 (UniProt P54762)
Sequence (P54762 whole entry, looked up): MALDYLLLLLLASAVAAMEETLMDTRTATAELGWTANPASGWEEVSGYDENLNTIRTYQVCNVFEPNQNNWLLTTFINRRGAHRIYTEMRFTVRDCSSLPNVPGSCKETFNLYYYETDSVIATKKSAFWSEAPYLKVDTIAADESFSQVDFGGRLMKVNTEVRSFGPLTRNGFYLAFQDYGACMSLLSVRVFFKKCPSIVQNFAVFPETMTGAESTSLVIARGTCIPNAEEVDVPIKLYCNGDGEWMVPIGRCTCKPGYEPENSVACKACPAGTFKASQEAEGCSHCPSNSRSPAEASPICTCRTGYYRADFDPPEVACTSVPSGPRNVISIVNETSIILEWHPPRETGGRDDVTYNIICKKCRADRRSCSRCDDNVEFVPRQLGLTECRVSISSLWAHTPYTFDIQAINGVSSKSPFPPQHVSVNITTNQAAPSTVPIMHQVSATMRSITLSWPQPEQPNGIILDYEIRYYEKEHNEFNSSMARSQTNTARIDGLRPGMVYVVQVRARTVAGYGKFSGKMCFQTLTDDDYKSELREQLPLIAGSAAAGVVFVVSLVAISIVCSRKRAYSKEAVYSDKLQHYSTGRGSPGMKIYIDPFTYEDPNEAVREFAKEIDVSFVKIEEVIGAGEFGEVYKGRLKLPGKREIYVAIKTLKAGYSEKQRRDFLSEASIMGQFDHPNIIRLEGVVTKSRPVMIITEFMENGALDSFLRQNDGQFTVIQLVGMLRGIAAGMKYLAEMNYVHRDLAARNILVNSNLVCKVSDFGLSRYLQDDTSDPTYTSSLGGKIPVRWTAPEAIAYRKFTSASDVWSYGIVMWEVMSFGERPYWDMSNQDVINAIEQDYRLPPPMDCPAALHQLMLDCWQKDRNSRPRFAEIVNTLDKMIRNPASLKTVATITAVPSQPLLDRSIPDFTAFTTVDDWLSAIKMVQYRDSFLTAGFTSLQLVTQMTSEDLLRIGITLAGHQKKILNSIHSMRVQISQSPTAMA
Assay: phosphorylation enrichment, bacterial display (enrichment ratio); higher = better substrate or ligand; peptides without Tyr show the background
Experimental Readout: phosphorylation enrichment
One number for each entry.

Seq Text	Data Value
LVPPRYVRSEI [PKP2_Y194_A195V]	0.538

Fill in phosphorylation enrichment for each of the 7 sequences listed.
1. RELGEYGLQAY [ALDH2_Y497]
2. NACGLYYKLHN [GATA2_Y376]
3. QRRYVYYYSYL [PTEN_Y176]
4. TKGNEYVFRVA
5. SPPILYSFYLN [FCRL6_Y239_D244N]
6. SSTAMYSAPGR [PSMB1_Y8]
7. VEQIHYIGQNE [HMOX2_Y140_R137Q]

[0.699, 1.13, 1.85, 0.415, 3.78, 0.497, 0.445]

# map each sequence to its phosphorylation enrichment
1. AEKPKYQISNI [TJP1_Y1602_N1605S]
2. AVNDFYAAKKT [CCDC178_Y422]
3. IVGLLYRLLTE [SETX_Y1978]
4. MNPPPYSQLLS [FGF23_Y154_F157L]

0.286
0.464
0.665
0.639

I would be grateful if you could provide phosphorylation enrichment for each of the following entries.
1. PDNKPYIFKVF [PIK3AP1_Y553_E551K]
2. CYCSWYRGWAP [TIMP3_Y195_G190C]

1: 0.752; 2: 0.628

---

Molecular target: FGFR1 (UniProt P11362)
Sequence (P11362 whole entry, looked up): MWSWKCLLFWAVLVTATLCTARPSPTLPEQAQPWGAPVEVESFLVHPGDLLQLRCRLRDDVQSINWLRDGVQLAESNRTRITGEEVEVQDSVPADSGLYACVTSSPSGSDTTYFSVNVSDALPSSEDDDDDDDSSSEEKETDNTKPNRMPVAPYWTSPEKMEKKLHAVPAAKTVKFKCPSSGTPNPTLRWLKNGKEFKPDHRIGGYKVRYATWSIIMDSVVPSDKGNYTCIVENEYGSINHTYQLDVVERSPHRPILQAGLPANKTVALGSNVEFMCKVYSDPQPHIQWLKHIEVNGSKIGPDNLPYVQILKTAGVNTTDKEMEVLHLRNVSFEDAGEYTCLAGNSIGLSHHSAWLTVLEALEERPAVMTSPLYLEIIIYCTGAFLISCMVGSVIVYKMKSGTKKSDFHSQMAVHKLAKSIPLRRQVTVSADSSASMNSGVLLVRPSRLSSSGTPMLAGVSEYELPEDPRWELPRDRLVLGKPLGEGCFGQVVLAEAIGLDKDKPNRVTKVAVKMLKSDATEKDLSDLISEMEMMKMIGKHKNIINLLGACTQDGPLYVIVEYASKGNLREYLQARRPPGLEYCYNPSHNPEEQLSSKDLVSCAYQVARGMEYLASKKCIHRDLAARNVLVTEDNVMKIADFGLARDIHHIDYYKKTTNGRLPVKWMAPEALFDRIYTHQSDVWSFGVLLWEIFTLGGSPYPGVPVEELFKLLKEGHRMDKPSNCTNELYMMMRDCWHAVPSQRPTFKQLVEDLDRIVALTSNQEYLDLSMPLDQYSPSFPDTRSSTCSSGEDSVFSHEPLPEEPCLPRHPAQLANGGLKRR
Test: phosphorylation enrichment, bacterial display (enrichment ratio); higher = better substrate or ligand; peptides without Tyr show the background
Decide by phosphorylation enrichment: equal to or exceeding 0.6 means Condition met, less means Condition not met.

Example entries and their recorded answers appear below.
Seq Text	Class Name
SQINLYQDVML [ZNF806_Y33_A28S]	Condition met
NGRTGYVLQPE [PLCG2_Y1036]	Condition not met
HIILLYIFLKN [STXBP1_Y411_R406H]	Condition met

Record DSDTDYGSGYP [RNASEH2A_Y206_L202S] ; criterion: phosphorylation enrichment no lower than 0.6. Met?
Condition met

hey, is phosphorylation enrichment for this one >= 0.6? VKPENYRRLDV [VHL_Y175_I180V]
Condition not met

Is phosphorylation enrichment at least 0.6? Consider CEHFSYFGMKA [SLC15A2_Y60_R57H_YF]
Condition met

---

Tested on: c-Abl (mouse)
Experiment: phosphorylation enrichment, bacterial display (enrichment ratio); higher = better substrate or ligand; peptides without Tyr show the background
Each entry falls in a class defined on phosphorylation enrichment; the bands are b0 (below 0.6), b1 (0.6 to below 0.8), b2 (0.8 or more)

Hi there! Could you help me figure out the category for FKDGQYWIRGR [ACSF3_Y466] please?
b0

Consider YLRTGYSIPYG [TGM1_Y370_V372I] . To which phosphorylation enrichment class does it belong?
b1

Band of QLDQHYLLVPE [DDX49_Y223_R222H] ?
b1

---

Give phosphorylation enrichment for every item shown.
Molecular target: FGFR3 (UniProt P22607)
Sequence (P22607 whole entry, looked up): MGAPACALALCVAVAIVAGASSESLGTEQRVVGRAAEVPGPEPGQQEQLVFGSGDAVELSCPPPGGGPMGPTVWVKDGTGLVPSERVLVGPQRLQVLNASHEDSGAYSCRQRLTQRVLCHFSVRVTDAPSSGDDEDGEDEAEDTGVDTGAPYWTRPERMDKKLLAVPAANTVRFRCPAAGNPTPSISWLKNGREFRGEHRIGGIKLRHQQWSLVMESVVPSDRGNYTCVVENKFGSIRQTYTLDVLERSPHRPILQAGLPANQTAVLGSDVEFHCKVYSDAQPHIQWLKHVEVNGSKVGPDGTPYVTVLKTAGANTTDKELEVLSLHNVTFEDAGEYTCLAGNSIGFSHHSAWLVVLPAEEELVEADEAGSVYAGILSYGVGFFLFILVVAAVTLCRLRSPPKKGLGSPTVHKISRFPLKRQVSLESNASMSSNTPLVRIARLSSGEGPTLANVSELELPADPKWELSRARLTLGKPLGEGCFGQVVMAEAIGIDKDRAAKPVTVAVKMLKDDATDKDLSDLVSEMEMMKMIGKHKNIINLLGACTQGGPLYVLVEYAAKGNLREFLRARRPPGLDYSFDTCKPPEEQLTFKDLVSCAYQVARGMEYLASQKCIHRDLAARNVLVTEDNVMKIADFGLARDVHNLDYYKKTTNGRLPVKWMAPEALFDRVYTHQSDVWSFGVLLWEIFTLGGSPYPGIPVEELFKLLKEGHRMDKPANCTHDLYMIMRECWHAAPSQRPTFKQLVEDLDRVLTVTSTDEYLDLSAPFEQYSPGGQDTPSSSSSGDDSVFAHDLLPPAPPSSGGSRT
Experiment: phosphorylation enrichment, bacterial display (enrichment ratio); higher = better substrate or ligand; peptides without Tyr show the background

Examples from the recorded data:
Seq Text	Data Value
TNFCLYLRSLE [MTM1_Y71_R69C_YF]	0.995
LKVDVYGRSHK [FUT3_Y222]	1.1
SAEEDYMADAK [KCNT1_Y876]	0.843
TQRPYYKGGGG [TYROBP_Y112]	0.455
NACGLYYKLHN [GATA2_Y376]	1.48

Each sequence below has a reported value. Please supply its phosphorylation enrichment.
1. MASISYDFCRV [BST2_Y6_T4I_YF]
2. TKGNEYVFRVA
3. GQRDLYSGLNQ [CD3E_Y199]

[0.824, 0.619, 0.583]

---

Target: EPHB2 (UniProt P29323)
Test: phosphorylation enrichment, bacterial display (enrichment ratio); higher = better substrate or ligand; peptides without Tyr show the background
Think of 0.7 as a floor: if phosphorylation enrichment stands on it or above, it is Criterion met; beneath it, Criterion not met.

Seq Text	Class Name
RGYRVCYTPDS [PTPRF_Y450_Y450C]	Criterion met

Check this sequence for phosphorylation enrichment at or above 0.7: TYEYKYPEGSS [TGM4_Y440]
Criterion not met

# bool: phosphorylation enrichment of YSNVLYRPRGP [TMIGD2_Y197_A202P] >= 0.7
Criterion not met

Hello, I need to know if PMDTYYDSTRG [DYNC2H1_Y2231] has measured phosphorylation enrichment not below 0.7. Thanks!
Criterion met

Could you verify whether the entry KVALLYKPFFF [POLE_Y100_P99L_YF] shows phosphorylation enrichment of no less than 0.7?
Criterion not met

Does phosphorylation enrichment meet or surpass 0.7 for NNHGNYIVHLG [ETFDH_Y172_R175H] ?
Criterion met

Please tell me: is the sequence LREIRYQGGNR [VWF_Y1570_V1565L] at or over 0.7 in terms of phosphorylation enrichment?
Criterion not met

Confirm if phosphorylation enrichment reported for the sequence WHHTFYNEPRV [ACTA1_Y93_L96P] is 0.7 or above.
Criterion not met

Entry PSPTRYSLSPS [RANBP2_Y785] : is its phosphorylation enrichment no less than 0.7?
Criterion met

Hello, I need to know if WLFFRYLAIGC [ATP2A2_Y836] has measured phosphorylation enrichment not below 0.7. Thanks!
Criterion not met

Hi, just wondering whether KVMANYMYKAG [MAML2_Y513] shows phosphorylation enrichment of 0.7 or higher.
Criterion not met

---

Tested on: AncSZ
Assay: phosphorylation enrichment, bacterial display (enrichment ratio); higher = better substrate or ligand; peptides without Tyr show the background
Experimental Readout: phosphorylation enrichment
Numbers only.

Observe how each entry below is paired with its result.
Seq Text	Target System	Data Value
HSLHDYKEALM [ADA2_Y337]	AncSZ	0.663
RPYVYYYSYLL [PTEN_Y177_R173P]	AncSZ	1.51
SVVVHYEPPEV [TP53_Y220_P219H]	AncSZ	1.15
AVRVFYRKCPH [EPHB2_Y194_R199H]	AncSZ	1.22

For every record below, what is its phosphorylation enrichment?
1. FNNPAYYVLEG [INPPL1_Y986]
2. EPVSDYINANI [PTPN11_Y304]
3. WQQQSYLDSGS [CTNNB1_Y30_I35S]

1: 1.2; 2: 0.997; 3: 0.781

---

System: Fer (mouse)
Experiment: phosphorylation enrichment, bacterial display (enrichment ratio); higher = better substrate or ligand; peptides without Tyr show the background
Assign y to entries whose phosphorylation enrichment meets or exceeds 0.5; assign n to the rest.

Example entries begin here.
Seq Text	Class Name
YGCGMYSHLQG [LGR4_Y848_D844G]	y
VPLATYMQIFK [RPL21_Y30_R32Q_YF]	n
TKGNEYVFRVA	n

Does SVVVPYEPPEG [TP53_Y220_V225G] have a reported phosphorylation enrichment of at least 0.5?
n

Say whether THPFLYLTLEI [MLH1_Y293_S295T] shows phosphorylation enrichment of 0.5 or more.
y

Entry SVTCTYSPALT [TP53_Y126_N131T] : is its phosphorylation enrichment no less than 0.5?
y

Data credit: the supplement of paper PMC10065799
